result type: melting point

Any idea what melting point was measured for O=Cc1c[nH]c2cccc(Br)c12 ?
179 to 180 °C

Any idea what melting point was measured for OCCCC#CC#CCCCO ?
45.5 to 47 °C

Any idea what melting point was measured for N[C@@H](Cc1ccccc1)C(=O)O ?
270 to 275 °C

Any idea what melting point was measured for C/C(=N/NC(N)=O)C(=O)Nc1ccc(Br)cc1 ?
243 to 245 °C

Any idea what melting point was measured for CN(C)Cc1ncccc1O ?
55 to 60 °C

Any idea what melting point was measured for CC(=O)c1occc1O ?
100 °C

Any idea what melting point was measured for O=C1CCc2cc(Br)ccc2C1 ?
70 to 76 °C

---

result type: melting point

Any idea what melting point was measured for c1ccc(C2=NCCN=C2c2ccccc2)cc1 ?
160 to 163 °C

Any idea what melting point was measured for NC(=O)c1sc(Nc2ccc(Cl)cc2)nc1N ?
220 to 222 °C

Any idea what melting point was measured for COC(=O)c1ccc(OC)cc1O ?
49 to 53 °C

Any idea what melting point was measured for Cc1nccn1-c1ccccc1N ?
132 to 134 °C

Any idea what melting point was measured for Cc1ccc(C(=O)O)cc1Cl ?
208 to 209 °C

---

Mark y only when melting point stays strictly below 100 °C. Values equal to the cut-off are n.

# strict comparison: is reported melting point < 100 °C? input = Fc1c(Cl)cccc1Cl
y

# strict comparison: is reported melting point < 100 °C? input = CCCCOC(=O)C(=O)OCCCC
y

# strict comparison: is reported melting point < 100 °C? input = CN1CCC23c4c5ccc(OCc6ccccc6)c4OC2C(O)C=CC3C1C5 (centres undefined)
n

# strict comparison: is reported melting point < 100 °C? input = NS(=O)(=O)c1ccc(F)cc1C(F)(F)F
n

# strict comparison: is reported melting point < 100 °C? input = Cc1ccc2c(c1)C(=O)CC2
y

# strict comparison: is reported melting point < 100 °C? input = CCCCCCC(O)C1C2=C(CC(C(O)C3CC=CC(=O)O3)CC3=C(C(=O)OC3=O)C1O)C(O)OC2=O (centres undefined)
n

# strict comparison: is reported melting point < 100 °C? input = Cc1cc(Br)c(N)c(C(=O)O)c1
n

# strict comparison: is reported melting point < 100 °C? input = FC(F)(F)C(Cl)=C(Cl)C(F)(F)F
y

---

Category | rule: reported melting point within range, see class A = under 100 °C, class B = from 100 °C up to 200 °C, class C = 200 °C and over

Band of c1ccc(CN(CC2=NCCN2)c2ccccc2)cc1 ?
class B

Band of CCCC(O)C=CC=CC=CC#CC#CCCCO (stereo not given) ?
class A

Band of O=C(CCl)NC1CC1 ?
class A

Band of NC(=O)N1CCCCC1 ?
class B

Band of CN[C@@H](Cc1ccc(O)cc1)C(=O)O ?
class C

Band of COC(=O)c1cccc(Cl)c1 ?
class A

Band of O=C(CC(c1ccccc1)c1ccccc1)c1ccccc1 ?
class A

Band of CCC(C)OC(=O)C1=C(C)NC(=O)NC1c1ccco1 (stereo not given) ?
class B

Band of O=C=N[Si](N=C=O)(N=C=O)N=C=O ?
class A

Band of O=C1OC(c2ccccc2)=NC1=Cc1ccccc1 ?
class B

Band of c1ccc2c(c1)ccc1c2ccc2c3ccccc3ccc21 ?
class C

Band of O=C1Nc2ccc(Cl)cc2C(c2ccccc2Cl)=NC1O (stereo not given) ?
class B

Band of CC(N)C(O)c1ccccc1 (stereo not given) ?
class B
